Data provenance: patent US20250263370A1

test: Plasma concentration of Example 101 in UUO rats by LC-MS/MS; assay type: in vivo, rat; conditions: rat, plasma, po, 30 mg/kg, UUO rats, 30 mg/kg oral, four hours after final treatment; read-out: mean plasma concentration
parameter: concentration at 4 h (ng/mL)
Only the number, expressed in ng/mL, is required.

For this molecule ( CNC(=O)c1[nH]c(C(=O)NC2CCC2)cc1O[C@@H](C)c1ccccc1 (stereo in doubt) ), measured concentration at 4 h is 846

* * *

Test: Beagle dog PK study 1 of Example 101 (propylene glycol-based formulation, IV and PO), with clinical observations
Type: in vivo
Conditions: beagle, dog, plasma, iv, 1 mg/kg, dog PK study 1, intravenous, Test Animal 3; read-out: Vss—obs
Experimental: The purpose of this study was to examine the pharmacokinetics of Example 101 in beagle dogs. […] An oral PK study was also undertaken in Lewis rats—see Experimental Method C. Body weight was recoded prior to dosing, and detailed clinical observations were made prior to dosing and throughout the study, as needed. Subsequently, 17.320 mL Vitamin E TPGS was added, and the solution was vortexed and sonicated. Then, 51.960 mL water was added, and solution was then heated. […]
parameter: Vd (L/kg)
Only the number, expressed in L/kg, is required.

For this compound ( CNC(=O)c1[nH]c(C(=O)NC2CCC2)cc1O[C@@H](C)c1ccccc1 (stereo in doubt) ), measured Vd is 0.719

* * *

assay: Beagle dog PK study 1 of Example 101 (propylene glycol-based formulation, IV and PO), with clinical observations; assay type: in vivo; settings: beagle, dog, plasma, iv, 1 mg/kg, dog PK study 1, intravenous, Test Animal 2; read-out: MRTInf—obs
parameter: MRT inf

For this compound ( CNC(=O)c1[nH]c(C(=O)NC2CCC2)cc1O[C@@H](C)c1ccccc1 (stereo in doubt) ), measured MRT inf is 1.29 h

* * *

assay: Beagle dog PK study 2 of Example 101 (HPβCD based formulation, IV), with clinical observations; type: in vivo; settings: beagle, dog, plasma, iv, 1 mg/kg, dog PK study 2, IV 1 mg/kg, HPβCD, mean; read-out: Vss—obs
parameter: Vd (L/kg)
Only the number, expressed in L/kg, is required.

For this compound ( CNC(=O)c1[nH]c(C(=O)NC2CCC2)cc1O[C@@H](C)c1ccccc1 (stereo in doubt) [Example 101] ), measured Vd is 0.864

* * *

experiment: Beagle dog PK study 2 of Example 101 (HPβCD based formulation, IV), with clinical observations; type: in vivo; conditions: beagle, dog, plasma, iv, 1 mg/kg, dog PK study 2, IV 1 mg/kg, HPβCD, 2 h, mean; read-out: Average plasma concentration, Mean
parameter: concentration at 2 h (ng/mL)
Only the number, expressed in ng/mL, is required.

For this molecule ( CNC(=O)c1[nH]c(C(=O)NC2CCC2)cc1O[C@@H](C)c1ccccc1 (stereo in doubt) ), measured concentration at 2 h is 87

* * *

test: Beagle dog PK study 1 of Example 101 (propylene glycol-based formulation, IV and PO), with clinical observations; assay type: in vivo; settings: beagle, dog, plasma, iv, 1 mg/kg, dog PK study 1, intravenous, mean; read-out: Vss—obs
parameter: Vd (L/kg)
Only the number, expressed in L/kg, is required.

For this molecule ( CNC(=O)c1[nH]c(C(=O)NC2CCC2)cc1O[C@@H](C)c1ccccc1 (stereo in doubt) ), measured Vd is 0.733
